- System: Panc 12
- TEST_SUMMARY: Cell proliferation assay, pancreatic cancer cell line Panc 12
- Format: cell-based
- CONDITION_DESCRIPTION: Cell Line Panc 10
pIC50: −log10 of the molar value.
MEASURED_QUANTITY: pIC50

CHEMICAL_STRING: COc1ccc2[nH]c3c(c2c1)C[C@H](C)N(C(=O)CCl)[C@H]3c1ccc(N2CCOCC2)cc1
VALUE_MEASURED: 7.23

###

- TEST_SUMMARY: in vivo
- CONDITION_DESCRIPTION: male, Balb/c nude, mouse, ip, 15 mg/kg

CHEMICAL_STRING: COC(=O)[C@H]1Cc2c([nH]c3ccccc23)[C@H](c2ccc(C(=O)OC(C)(C)C)cc2)N1C(=O)CCl
UNITS_OF_MEASURE: min
Tmax: 30

###

- Test system: MiaPaCa-2
- TEST_SUMMARY: Cell viability assay (CellTiter Glo), pancreatic carcinoma MiaPaCa-2
- Assay type: cell-based
- CONDITION_DESCRIPTION: Homo sapiens, MIA PaCa-2; pancreatic carcinoma, 96 hours, CellTiter Glo; read-out: IC50 MiaPaCa-2
pIC50: −log10 of the molar value.
pIC50 values for the compounds below.
MEASURED_QUANTITY: pIC50

COMPOUND: CNC(=O)c1ccc([C@H]2c3[nH]c4ccccc4c3C[C@H](C(=O)OC)N2C(=O)CCl)cc1 [Example 7]
MEASURED_QUANTITY: pIC50
VALUE_MEASURED: 6.92
--
COMPOUND: COC(=O)[C@H]1Cc2c([nH]c3ccccc23)[C@H](c2ccc(C(=O)NCCNC(=O)OC(C)(C)C)cc2)N1C(=O)CCl [Example 16]
MEASURED_QUANTITY: pIC50
VALUE_MEASURED: 7.62
--
COMPOUND: CN(C)C(=O)c1ccc([C@H]2c3[nH]c4ccccc4c3C[C@H](C(=O)N(C)C)N2C(=O)CCl)cc1 [Example 38]
MEASURED_QUANTITY: pIC50
VALUE_MEASURED: 5.44
--
COMPOUND: CC(C)(C)OC(=O)[C@H]1Cc2c([nH]c3ccccc23)[C@H](c2ccc([N+](=O)[O-])cc2)N1C(=O)CCl [Example 11]
MEASURED_QUANTITY: pIC50
VALUE_MEASURED: 7.04
--
COMPOUND: COC(=O)C1CCC([C@H]2c3[nH]c4ccccc4c3C[C@H](C(=O)N(C)C)N2C(=O)CCl)CC1 (some centres unmarked) [Example 41]
MEASURED_QUANTITY: pIC50
VALUE_MEASURED: 7.40
--
COMPOUND: CN(C)C(=O)[C@H]1Cc2c([nH]c3ccccc23)[C@H](c2ccc(C(=O)N(CCC(=O)OC(C)(C)C)C(C)(C)C)cc2)N1C(=O)CCl [Example 54]
MEASURED_QUANTITY: pIC50
VALUE_MEASURED: 6.66
--
COMPOUND: COC(=O)[C@H]1Cc2c([nH]c3ccccc23)[C@H](c2ccc(C(=O)OC(C)(C)C)cc2)N1C(=O)C(Cl)Cl [Compound 263]
MEASURED_QUANTITY: pIC50
VALUE_MEASURED: 5.25
--
COMPOUND: CN(C)C(=O)[C@H]1Cc2c([nH]c3ccccc23)[C@@H](c2ccc([Si](C)(C)C)cc2)N1C(=O)CCl [Example 67a]
MEASURED_QUANTITY: pIC50
VALUE_MEASURED: 5.87
--
COMPOUND: COC(=O)[C@H]1Cc2c([nH]c3ccccc23)[C@H](c2ccc(C(=O)N3CCOCC3)cc2)N1C(=O)CCl [Example 26]
MEASURED_QUANTITY: pIC50
VALUE_MEASURED: 7.28
--
COMPOUND: CC(C)OC(=O)[C@H]1Cc2c([nH]c3ccccc23)[C@H](c2ccc(C(=O)OC(C)(C)C)cc2)N1C(=O)CCl [Example 20]
MEASURED_QUANTITY: pIC50
VALUE_MEASURED: 7.43
--
COMPOUND: COC(=O)[C@H]1Cc2c([nH]c3ccccc23)[C@H](c2ccc(N[C@]34CC5C[C@H](C[C@H](C5)C3)C4)cc2)N1C(=O)CCl [Example 29]
MEASURED_QUANTITY: pIC50
VALUE_MEASURED: 7.48
--
COMPOUND: COC(=O)[C@H]1Cc2c([nH]c3ccccc23)[C@@H](c2ccc(S(=O)(=O)N(C)C)cc2)N1C(=O)CCl [Example 23a]
MEASURED_QUANTITY: pIC50
VALUE_MEASURED: 5.50
--
COMPOUND: CN(C)C(=O)[C@H]1Cc2c([nH]c3ccccc23)[C@H](c2ccc(C(=O)NC[Si](C)(C)C)cc2)N1C(=O)CCl [Example 66]
MEASURED_QUANTITY: pIC50
VALUE_MEASURED: 6.80
--
COMPOUND: COC(=O)[C@H]1Cc2c([nH]c3ccccc23)[C@H](c2ccc(C(=O)OC(C)(C)C)cc2)N1C(=O)CCl [Example 1]
MEASURED_QUANTITY: pIC50
VALUE_MEASURED: 8.30
